- Species on record: Cavia porcellus
- Assay Procedure: Inhibition of twitches in guinea pig ileum
- Assay type: functional
Value Type: IC50 (nM)
Report the value in nM with no unit label.

Lab book: IC50 of C[C@@H](NC(=O)[C@@H](N)Cc1ccc(O)cc1)C(=O)N[C@@H](Cc1ccccc1)C(=O)NCC(=O)N[C@@H](Cc1ccc(O)cc1)C(=O)N1CCC[C@H]1C(=O)N[C@@H](CO)C(N)=O noted as 0.052

Lab book: IC50 of CSCC[C@H](NC(=O)[C@H](Cc1ccccc1)NC(=O)CNC(=O)[C@@H](C)NC(=O)[C@@H](N)Cc1ccc(O)cc1)C(N)=O noted as 2.5
